Entries annotated with measured melting point

Check out these entries, answers already filled in.
In [3]: df
Out[3]:
                                   compound        reading
0          COC(=O)CC(=O)c1ccccc1OCc1ccccc1C    38 to 42 °C
1  O=[N+]([O-])C=Cc1cnc2c(OCc3ccccc3)cccn12         204 °C
2        CC(=O)Nc1ccc2nc(NC3=NCCN3)[nH]c2c1         294 °C
3                 Nc1cc(F)c(F)cc1S(N)(=O)=O  137 to 142 °C
4  Cc1oc(-c2ccccc2)nc1CCOc1ccc(C[C@@H](C(=O)O)N2CCN(S(=O)(=O)c3ccc([N+](=O)[O-])cc3)CC2)cc1  205 to 207 °C
5  CC(=O)OC1CSC(Oc2cncc(-c3ccc(N4CCCCC4)cc3)c2)C(OC(C)=O)C1OC(C)=O (stereo not given)         196 °C

Which melting point value is on record for Nc1nc2ccccc2c2c1ncn2CCOCc1ccccn1 ?
196 to 198 °C

Quick one: melting point of Cc1c(-c2ccccc2)sc2nc(NCCO)[nH]c(=O)c12 ?
227 to 229 °C

Recorded melting point of CCOC(=O)c1cnc2c(NC(=O)c3c(Cl)cccc3Cl)cccc2c1C , please.
159 to 162 °C

I am curious: what melting point value has been reported for C[Si](C)(C)OCc1cccc2c1c1c(c3ccccc32)-c2c(c3ccccc3c3ccccc23)C1 ?
130 to 131 °C
